I'd be grateful if you could share measured viscosity for these entries.
- settings: 288.15 K; 101.33 kPa; Liquid; Concentric cylinders viscometry
One number for each entry, in mPa·s.

Reference set (5 entries):
| compound | unit symbol | viscosity |
| --- | --- | --- |
| CCCCCCCCCCCC(=O)OC [methyl dodecanoate] | mPa·s | 3.577 |
| CCCCCCCCCCCCCC(=O)OCC [ethyl tetradecanoate] | mPa·s | 5.43 |
| CCCCC/C=C\C/C=C\CCCCCCCC(=O)OC [methyl (Z,Z)-9,12-octadecadienate] | mPa·s | 5.655 |
| CCCCCCCC/C=C\CCCCCCCC(=O)OC [methyl cis-9-octadecenoate] | mPa·s | 7.452 |
| CCCCCCCCCC(=O)OC [methyl decanoate] | mPa·s | 2.373 |

Record viscosity per entry; entries follow.
1. CCCCCCCC/C=C\CCCCCCCC(=O)OCC [ethyl (Z)-9-octadeceneoate]
2. CCCCCCCC(=O)OC [methyl octanoate]
3. CCCCCCCCCCCC(=O)OCC [ethyl dodecanoate]
4. CCCCCCCCCC(=O)OCC [ethyl decanoate]

Result:
1. 7.595
2. 1.559
3. 3.813
4. 2.588
